IC50 values by entry
Protocol summary: Inhibition of Mycobacterium tuberculosis DNA gyrase assessed as reduction in DNA supercoiled DNA formation incubated for 30 mins by […] analysis
Give your result as the value with the unit written after it.

>>> observed_result("O=C(O)c1cn(C2CC2)c2cc(N3CCNCC3)c(F)cc2c1=O")
"10 µM"
>>> observed_result("Cc1cc2c(c(O)c1-c1c(C)cc(O)c3c1C(=O)C=CC3=O)C(=O)C=CC2=O")
"100 µM"
>>> observed_result("Cc1cc(O)c2c(c1)C(=O)C=C(c1c(C)cc(O)c3c1C(=O)C=CC3=O)C2=O")
"50 µM"

Requested read-out: IC50. Entry: Cc1cc(O)c2c(c1)C(=O)C(c1c(C)cc3c(c1O)C(=O)C=CC3=O)=CC2=O
15 µM

Numbers sourced from ChEMBL document CHEMBL4715879.
